Provenance of the data: patent US20240391984A1

Would you mind telling me the reported Kd of each entry?
- testTarget: polyclonal IgG (Gammanorm, Octapharma, Sweden)
- procedureText: SPR (Biacore 8K+), variant amine-coupled to CM5, Gammanorm as analyte, steady state fit
Give bare numbers, in nM.

# Kd of pAM140 (B3 domain of Protein L; pos 10 Y, pos 45 H, pos 60 Y) (designed binder) PKEEVTIKAYLIYADGKTQTAEFKGTFEEATAEAYRYADLLAKEHGKYTVDVADKGYTLYIKFAGKEKTPEE = 96

# Kd of pAM152 (C4 domain of Protein L; pos 10 N, pos 45 N, pos 60 N) (protein) PKEEVTIKVNLIFADGKTQTAEFKGTFEEATAEAYRYADLLAKVNGEYTADLEDGGYTINIKFAGKEQPGENPG = 24

# Kd of pAM157 (B4 domain of Protein L; pos 10 Q, pos 45 A, pos 60 Q) (designed binder) PKEEVTIKAQLIYADGKTQTAEFKGTFAEATAEAYRYADLLAKEAGKYTADLEDGGYTIQIRFAGKKVDEKPEE = 38

# Kd of pAM127 (B3 domain of Protein L; pos 10 Q, pos 45 N, pos 60 Y) (designed binder) PKEEVTIKAQLIYADGKTQTAEFKGTFEEATAEAYRYADLLAKENGKYTVDVADKGYTLYIKFAGKEKTPEE = 62

Kindly consider the entry below.
# Kd of pAM120 (B3 domain of Protein L; pos 10 N, pos 45 A, pos 60 Y) (designed binder) PKEEVTIKANLIYADGKTQTAEFKGTFEEATAEAYRYADLLAKEAGKYTVDVADKGYTLYIKFAGKEKTPEE = 69
